The origin of these recorded values is the RNAGym collection of RNA variant scans (doi:10.7554/elife.80360).

B1: HDV Ribozyme (parent)
chain: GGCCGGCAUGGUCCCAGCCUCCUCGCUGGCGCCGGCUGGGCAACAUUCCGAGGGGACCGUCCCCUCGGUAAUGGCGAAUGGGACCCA

variants of: B1; experiment: self-cleavage, relative activity (ratio to wild type); higher = more cleavage; co-transcriptional
// map self-cleavage onto a label; ranges low bin = under 0.1, mid bin = from 0.1 up to 0.6, high bin = 0.6 and over

1. C44U G50A :: high bin
2. G2C U12A :: mid bin
3. G11C A16C :: high bin

Now for a further variant.
Bin this entry: G25C G74A
low bin
